study-target: EGFR Del19/T790M/C797S (Homo sapiens, UniProt P00533, C797S/DEL746-750/T790M)
Sequence (P00533 with tags, fused parts or gaps DEL746-750/T790M/C797S): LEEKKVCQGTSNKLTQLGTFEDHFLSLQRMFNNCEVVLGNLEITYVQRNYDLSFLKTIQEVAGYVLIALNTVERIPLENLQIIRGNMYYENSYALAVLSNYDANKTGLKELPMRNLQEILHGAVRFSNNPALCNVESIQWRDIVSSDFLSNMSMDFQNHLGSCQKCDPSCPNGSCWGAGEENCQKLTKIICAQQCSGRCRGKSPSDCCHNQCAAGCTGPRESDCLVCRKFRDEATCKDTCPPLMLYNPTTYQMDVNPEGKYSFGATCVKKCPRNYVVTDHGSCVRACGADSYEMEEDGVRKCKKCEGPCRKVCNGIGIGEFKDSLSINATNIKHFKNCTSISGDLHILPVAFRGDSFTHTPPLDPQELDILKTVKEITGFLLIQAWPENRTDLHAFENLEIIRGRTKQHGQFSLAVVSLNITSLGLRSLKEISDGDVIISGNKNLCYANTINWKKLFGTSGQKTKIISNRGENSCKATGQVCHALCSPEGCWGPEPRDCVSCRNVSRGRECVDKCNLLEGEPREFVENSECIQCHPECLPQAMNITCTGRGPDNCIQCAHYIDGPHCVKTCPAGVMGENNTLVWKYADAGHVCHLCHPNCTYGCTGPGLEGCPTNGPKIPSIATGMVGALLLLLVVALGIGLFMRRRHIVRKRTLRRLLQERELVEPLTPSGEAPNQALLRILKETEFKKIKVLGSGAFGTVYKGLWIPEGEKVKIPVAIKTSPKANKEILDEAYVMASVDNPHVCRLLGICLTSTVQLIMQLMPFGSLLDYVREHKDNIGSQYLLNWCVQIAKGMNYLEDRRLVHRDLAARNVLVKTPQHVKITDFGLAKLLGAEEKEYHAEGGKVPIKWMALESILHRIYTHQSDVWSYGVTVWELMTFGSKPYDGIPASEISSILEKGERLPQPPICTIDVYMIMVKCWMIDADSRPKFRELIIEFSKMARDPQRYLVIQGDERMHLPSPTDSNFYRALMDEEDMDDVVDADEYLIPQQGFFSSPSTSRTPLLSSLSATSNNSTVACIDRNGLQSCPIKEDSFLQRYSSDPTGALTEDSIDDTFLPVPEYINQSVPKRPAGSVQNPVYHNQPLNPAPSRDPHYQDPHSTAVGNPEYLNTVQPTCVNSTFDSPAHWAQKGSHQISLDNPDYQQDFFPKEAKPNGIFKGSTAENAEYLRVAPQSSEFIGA
test-method-notes: Biochemical EGFR kinase inhibition assay (Lance Ultra TR-FRET), triple mutant del19/T790M/C797S
particulars: IC50 Del19/T790M/C797S (nM), 100 μM ATP
quantity: IC50 (nM)
Give just the numeric value; nM need not be written.

What the record says about "CC1(O)CCN(c2cc(Nc3ccnc(-c4cnn(S(=O)(=O)C5CC5)c4)n3)ncc2C#Cc2ccc(C(=O)N3CCC(O)CC3)cc2)CC1" : IC50 is 0.9

What the record says about "CC1(CO)CCN(c2cc(Nc3ccnc(-c4cnn(S(=O)(=O)C5CC5)c4)n3)ncc2C#CC2(O)CCCCC2)CC1" : IC50 is 1.4

What the record says about "CC(=O)N1CCC(n2cc(C#Cc3cnc(Nc4ccnc(-c5cnn(S(=O)(=O)C6CC6)c5)n4)cc3N3CCC(F)(CO)CC3)cn2)CC1" : IC50 is 0.9

What the record says about "Cn1cc(C#Cc2cnc(Nc3ccnc(-c4cnn(S(=O)(=O)C5CC5)c4)n3)cc2N2CCC(C)(CO)CC2)cn1" : IC50 is 0.8

What the record says about "CN1CCN(Cc2ccc(C#Cc3cnc(Nc4ccnc(-c5cnn(S(=O)(=O)C6CC6)c5)n4)cc3N3CCC(C)(CO)CC3)cn2)CC1" : IC50 is 0.7

What the record says about "CN(C)CCNC1CCN(c2cc(Nc3ccnc(-c4cnn(S(=O)(=O)C5CC5)c4)n3)ncc2C#Cc2cnn(C3CCOCC3)c2)CC1" : IC50 is 0.3

====

study-target: EGFR Del19/T790M/C797S (Homo sapiens, UniProt P00533, C797S/DEL746-750/T790M)
test-method-notes: Biochemical EGFR kinase inhibition assay (Lance Ultra TR-FRET), triple mutant del19/T790M/C797S
particulars: IC50 Del19/T790M/C797S (nM), 100 μM ATP
quantity: IC50 (nM)
Give just the numeric value; nM need not be written.

What the record says about O=S(=O)(C1CC1)n1cc(-c2nccc(Nc3cc(N[C@H]4CC[C@@H](CO)CC4)c(C#Cc4cnn(CCF)c4)cn3)n2)cn1 [Example 379] : IC50 is 0.7

What the record says about O=C(c1ccc(C#Cc2cnc(Nc3ccnc(-c4cnn(S(=O)(=O)C5CC5)c4)n3)cc2N[C@H]2CC[C@@H](CO)CC2)cc1)N1CCC(O)CC1 [Example 441] : IC50 is 2.2

What the record says about O=S(=O)(C1CC1)n1cc(-c2nccc(Nc3cc(N4C[C@@H]5[C@@H](CO)[C@@H]5C4)c(C#Cc4cnn(C(F)(F)F)c4)cn3)n2)cn1 [Example 331] : IC50 is 10.3

What the record says about CN(C)CCCn1cc(C#Cc2cnc(Nc3ccnc(-c4cnn(S(=O)(=O)C5CC5)c4)n3)cc2N2CCC(NCCF)CC2)cn1 [Example 145] : IC50 is 0.2

What the record says about CC1(CO)CCN(c2cc(Nc3ccnc(-c4cnn(S(=O)(=O)C5CC5)c4)n3)ncc2C#CC2(O)COC2)CC1 [Example 354] : IC50 is 0.2

What the record says about CN(C)CCC1CCCN(c2cc(Nc3ccnc(-c4cnn(S(=O)(=O)C5CC5)c4)n3)ncc2C#Cc2cnn(CCF)c2)C1 (stereo not drawn) [Example 386] : IC50 is 0.3
